Data origin, for the record: BindingDB's records for doi:10.1016/0960-894X(95)00040-Z

Assay: Compound was tested for inhibitory activity against prostaglandin synthetase in mouse brain microsomes
property-measured: IC50 (µM)

> print(dat)
                             query.smiles  property.measured  result.value
1  C1=C(CCN2CCOCC2)c2ccccc2/C1=C/c1ccccc1               IC50            20
